Where these numbers come from: the RNAGym collection of RNA variant scans (doi:10.1073/pnas.2313332121)

B1: TPR t1 (parent)
chain: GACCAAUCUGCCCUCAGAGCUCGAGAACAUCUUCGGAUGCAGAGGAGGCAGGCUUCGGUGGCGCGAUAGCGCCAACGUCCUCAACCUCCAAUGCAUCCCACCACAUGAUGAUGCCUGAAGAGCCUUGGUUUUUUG

Variants of: B1
Test Description: polymerase ribozyme fitness, log enrichment relative to wild type (log ratio); higher = more active; in vitro selection for triplet polymerase activity
Please mark 1 if the recorded polymerase ribozyme fitness (log ratio) is equal to or greater than -0.8, and -1 if it falls below.

Does A43C G69A U112C G135A have a reported polymerase ribozyme fitness (log ratio) of at least -0.8?
-1

Does G39A C70G U112G have a reported polymerase ribozyme fitness (log ratio) of at least -0.8?
-1

Does C12U U30G G63U G113C G117C have a reported polymerase ribozyme fitness (log ratio) of at least -0.8?
-1

Does G117A A119G have a reported polymerase ribozyme fitness (log ratio) of at least -0.8?
1

Does C56U G110U have a reported polymerase ribozyme fitness (log ratio) of at least -0.8?
1

Does C22G G57A A68C C80A C101U C124A have a reported polymerase ribozyme fitness (log ratio) of at least -0.8?
-1

Does C15U C73U have a reported polymerase ribozyme fitness (log ratio) of at least -0.8?
-1

Does C76G U78C G135U have a reported polymerase ribozyme fitness (log ratio) of at least -0.8?
-1

Does U32C G60C A75C C79G A118U have a reported polymerase ribozyme fitness (log ratio) of at least -0.8?
-1

Does C11G C56G have a reported polymerase ribozyme fitness (log ratio) of at least -0.8?
1

Does C40G G71A have a reported polymerase ribozyme fitness (log ratio) of at least -0.8?
-1

Does "U78A" have a reported polymerase ribozyme fitness (log ratio) of at least -0.8?
1

Does A2G G57C U59G A100U U106C have a reported polymerase ribozyme fitness (log ratio) of at least -0.8?
-1

Does C22G A29C G61U G63C C97A C124A have a reported polymerase ribozyme fitness (log ratio) of at least -0.8?
-1

Does C11U C88G C114A U126A have a reported polymerase ribozyme fitness (log ratio) of at least -0.8?
-1

Does C85U C101A C104A have a reported polymerase ribozyme fitness (log ratio) of at least -0.8?
-1

Does G93C G120A U130C have a reported polymerase ribozyme fitness (log ratio) of at least -0.8?
1

Does C88A C104A A121U U130C have a reported polymerase ribozyme fitness (log ratio) of at least -0.8?
1

Does C15A C80U A84U have a reported polymerase ribozyme fitness (log ratio) of at least -0.8?
-1
